# Test system: NEK9
# measurement setup: concentration: 1 μM, replicates: in singlicate; n = 1;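 further: KINOMEscan kinase panel screen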
value kind: %Inh (%)
Report as a plain number; the unit % is understood.

Here's what some known entries look like.
INSERT INTO assay_data (compound, value_kind, units_symbol, observed) VALUES
  ('CCOc1nccc(-c2c(-c3ccc(F)cc3)ncn2C2CCNCC2)n1', '%Inh', '%', 7),
  ('Cl.Cl.NCC(NC(=O)c1cc(-c2cccnc2)c(-c2ccnc3[nH]ccc23)s1)c1ccccc1 (centres unmarked)', '%Inh', '%', 11),
  ('O=C(Nc1c(F)cccc1F)c1cc(C(=O)c2ccccc2F)c[nH]1', '%Inh', '%', 5),
  ('CNc1nccc(-c2ccc3c(N)n[nH]c3c2)n1', '%Inh', '%', 9),
  ('CCn1c(-c2nonc2N)nc2c(-c3ccccc3)ncc(OCCCN)c21.O=C(O)C(F)(F)F.O=C(O)C(F)(F)F', '%Inh', '%', 0),
  ('COC(=O)Nc1nc2cc(Oc3ccc(NC(=O)Nc4cccc(SC)c4)cc3)ccc2[nH]1.Cl', '%Inh', '%', 3),
  ('CN(C)c1ncnc2nc[nH]c12', '%Inh', '%', 0);

Would you kindly look at the next entry?
Record summary for `CN(c1ccc(F)c(NC(=O)c2cccc(OC(C)(C)C#N)c2Cl)c1)c1ccc2nc(NC(=O)C3CC3)sc2n1` : reported %Inh = 5

###

# System: DAPK1
# measurement setup: concentration: 1 μM, replicates: in singlicate; n = 1
Please note: true applies when %Inh is 7% or greater, and false applies otherwise.

Ask | Does the compound Cc1ccc(-c2ccc3occ(-c4ccc(S(C)=O)cc4)c3c2)nn1 (stereo not drawn) have recorded %Inh that is 7% or more?
Reply | false

Ask | Does the compound `Cc1ccc(Nc2ccnc(Nc3ccc(C)c(F)c3)n2)cc1O.Cl` have recorded %Inh that is 7% or more?
Reply | false

Ask | Does the compound `Cn1cc(-c2cnc(N)c3c(-c4ccc5c(c4)CCN5C(=O)Cc4ccccc4)csc23)cn1` have recorded %Inh that is 7% or more?
Reply | true

Ask | Does the compound `N#CC1(c2cccc(C(=O)Nc3cccc(Oc4ccc5nc(NC(=O)C6CC6)sc5n4)c3)c2)CC1` have recorded %Inh that is 7% or more?
Reply | false

Ask | Does the compound `CS(=O)(=O)c1cccc(CNc2nc(Nc3ccc4c(c3)CCC(=O)N4)ncc2C(F)(F)F)c1` have recorded %Inh that is 7% or more?
Reply | false

Ask | Does the compound `COc1cc(Nc2ccnc3cc(-c4ccncc4)ccc23)cc(OC)c1OC.Cl` have recorded %Inh that is 7% or more?
Reply | false

###

# System: WNK3
# measurement setup: concentration: 1 μM, replicates: in singlicate; n = 1
Please note: true applies when %Inh is 10% or greater, and false applies otherwise.

# count of solved cases: 3
INSERT INTO assay_data (compound, group_label) VALUES
  ('COC(=O)Nc1nc2cc(Oc3ccc(NC(=O)Nc4cccc(SC)c4)cc3)ccc2[nH]1.Cl', 'true'),
  ('Cc1ccccc1CC(=O)N1CCc2cc(-c3cn(C)c4ncnc(N)c34)ccc21', 'true'),
  ('Cc1cc(-c2ccnc(Nc3cccc(C#N)c3)n2)cc(C)c1O', 'false');

Ask | Does the compound `CC(C)c1nc(-c2ccc(F)c(NS(=O)(=O)c3c(F)cccc3F)c2)c(-c2ccnc(Nc3ccc(N4CCOCC4)nc3)n2)s1` have recorded %Inh that is 10% or more?
Reply | false

Ask | Does the compound COc1cc(Nc2nccc(N3CCC(NC(=O)Nc4ccc5c(c4)OCO5)C3)n2)cc(OC)c1OC (stereo not drawn) have recorded %Inh that is 10% or more?
Reply | true

Ask | Does the compound `Nc1ncc(-c2ccc3nccc(-c4ccncc4)c3c2)cc1S(=O)(=O)N1CCCCC1` have recorded %Inh that is 10% or more?
Reply | true
